Target: T1, DVL3, Q92997
T1 sequence (Q92997 244-331, limits assumed, looked up): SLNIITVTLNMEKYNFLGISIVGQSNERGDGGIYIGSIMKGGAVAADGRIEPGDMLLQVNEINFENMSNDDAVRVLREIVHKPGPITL
Assay: holdup assay
Set-up: key: below the threshold = too weak to quantify, mostly under pKd 3.1 to 4
Details: plain residues with an end cap or a label only (N-terminal biotin on a linker: ado-ado)
parameter_measured: pKd

| binder | result |
| --- | --- |
| VYEVPVETKF [SLC26A3, P40879] | below the threshold |
| PAALPESTHM [SLC9A3, P48764] | below the threshold |
| KEKASTETEC [TRPM1, Q7Z4N2] | below the threshold |

From: paper PMC9482650
